experiment: Inhibition of NS5B polymerase E1202G/T1280I/S2197P mutant in HCV genotype 1b infected in human HuH7 replicon cells after 72 hrs in presence of 50% human serum by luciferase-based reporter assay
quantity_measured: EC50 (nM)
Give just the numeric value; nM need not be written.

Here is how some compounds turned out for EC50.
CNC(=O)c1c(-c2ccc(F)cc2)oc2cc(N(C)S(C)(=O)=O)c(-c3ccc4c(n3)-c3cc5c(F)cccc5n3CC4)cc12    13
CNC(=O)c1c(-c2ccc(F)cc2)oc2cc(N(C)S(C)(=O)=O)c(-c3ccc4c(n3)-c3cc5c(F)cccc5n3CN4)cc12    46
CNC(=O)c1c(-c2ccc(F)cc2)oc2cc(N(C)S(C)(=O)=O)c(-c3ccc4ccn5c6cccc(F)c6cc5c4n3)cc12    30

Query compound follows.
Qu. Returns the measured EC50 for the input compound. Input: CNC(=O)c1c(-c2ccc(F)cc2)oc2cc(N(C)S(C)(=O)=O)c(-c3ccc4ncn5c6cccc(F)c6cc5c4n3)cc12
Ans. 16

Recorded values, source BindingDB's records for doi:10.1016/j.bmcl.2018.10.045.
